Data origin, for the record: patent US5756813A

- System: T4 lymphocytes (CEM cell line)
- Procedure Text: Toxicity to uninfected T4 lymphocytes (CEM cell line): 50% inhibition of cell growth (second blank)
- Format: cell-based, human
- Condition Context: Homo sapiens, CCRF-CEM, uninfected CEM cells, no HIV-1; cytotoxicity; replicate tests; read-out: IC50 (concentration that results in 50% inhibition of cell growth)
Property Name: IC50

Consider the following illustrative entries.
INSERT INTO measurements (compound, system_tested, meas_value) VALUES
  ('Cc1occc1C(=S)Nc1ccc(Cl)c(C(=O)OC(C)C2CC2)c1 (centres unmarked)', 'T4 lymphocytes (CEM cell line)', '> 20 µM'),
  ('CC1(OC(=O)c2cc(NC(=S)c3ccccc3)ccc2Cl)CCCC1', 'T4 lymphocytes (CEM cell line)', '29.4 µM'),
  ('Cc1occc1C(=O)Nc1ccc(Cl)c(C(=O)OC(C)C2CC2)c1 (centres unmarked)', 'T4 lymphocytes (CEM cell line)', '> 21 µM'),
  ('CC1=C(C(=O)Nc2ccc(Cl)c(C(=O)OC3CCCCC3C)c2)SCCO1 (centres unmarked)', 'T4 lymphocytes (CEM cell line)', '> 24 µM'),
  ('CC1CCC(OC(=O)c2cc(NC(=O)c3ccccc3)ccc2Cl)C1 (centres unmarked)', 'T4 lymphocytes (CEM cell line)', '19 µM');

Query :: # lookup: IC50 of Cc1ccccc1C(=S)Nc1ccc(Cl)c(C(=O)OC2CCCCC2C)c1 (centres unmarked)
Result :: > 9.4 µM

Query :: # lookup: IC50 of CC(OC(=O)c1cc(NC(=S)c2ccccc2)ccc1Cl)C1CCCC1 (centres unmarked)
Result :: > 14 µM

Query :: # lookup: IC50 of CC1CCCC(C)C1OC(=O)c1cc(NC(=S)c2ccccc2)ccc1Cl (centres unmarked)
Result :: > 13 µM

---

- Test system: T4 lymphocytes (CEM cell line)
- Procedure Text: Toxicity to uninfected T4 lymphocytes (CEM cell line): 50% inhibition of cell growth (second blank)
- Format: cell-based, human
- Condition Context: Homo sapiens, CCRF-CEM, uninfected CEM cells, no HIV-1; cytotoxicity; replicate tests; read-out: IC50 (concentration that results in 50% inhibition of cell growth)
Property Name: IC50 (µM)
Express your answer in µM, writing the number without its unit.

Consider the following illustrative entries.
INSERT INTO results (compound, property_name, meas_value) VALUES
  ('CC1CCCC1OC(=O)c1cc(NC(=S)c2ccccc2)ccc1Cl (stereo not drawn) [Compound 3]', 'IC50', 14.1),
  ('CC1CCC(OC(=O)c2cc(NC(=S)c3ccccc3)ccc2Cl)C1 (stereo not drawn) [Compound 8]', 'IC50', 14.6),
  ('CC1(OC(=O)c2cc(NC(=O)c3ccccc3)ccc2Cl)CCCC1 [Compound 1]', 'IC50', 41.8),
  ('Cc1occc1C(=O)Nc1ccc(Cl)c(C(=O)OC(C)C2CCCC2)c1 (stereo not drawn) [Compound 14]', 'IC50', 7.7),
  ('CC1CCCCC1OC(=O)c1cc(NC(=S)c2ccccc2)ccc1Cl (stereo not drawn) [Compound 5]', 'IC50', 16),
  ('CC1CCCCC1OC(=O)c1cc(NC(=O)c2ccccc2)ccc1Cl (stereo not drawn) [Compound 9]', 'IC50', 14.2);

// next entry
Query :: # lookup: IC50 of Cc1ccccc1C(=O)Nc1ccc(Cl)c(C(=O)OC2CCCCC2C)c1 (stereo not drawn) [Compound 10]
Result :: 19.7
